# experimental.system: UniProtKB Q9Y233
Response field class: string, computed from recorded IC50 by ranges A (below 10 nM), B (10 nM to below 1000 nM), C (1000 nM or more)

Use these answered entries as a reference point.
compound="Cn1nccc1NC(=O)c1c(C(=O)N2CCC2)cnn1C [Roche-Dataset for PDE10A, Compound 1138]" category=C
compound="Cc1cc(NC(=O)c2c(C(=O)N3CCC3)cnn2C)cc(NC(=O)OC(C)(C)C)n1 [Roche-Dataset for PDE10A, Compound 1068]" category=B
compound="Cn1ncc(C(=O)N2CCC2)c1C(=O)Nc1ccc2sc(-c3ccccc3)nc2c1 [Roche-Dataset for PDE10A, Compound 174]" category=A
compound="Cc1ccc(Nc2cncc(O)n2)c(C(=O)Nc2ccn(C)n2)n1 [Roche-Dataset for PDE10A, Compound 940]" category=C
compound=O=C(Nc1cc(-c2cccc(Cl)n2)nn1CCO)c1nc(C2CC2)ccc1Nc1cncnc1 category=A

Using the reported IC50, which band applies to Cn1ncc(C(=O)N2CCC2)c1C(=O)Nc1ccn(Cc2ccc(Cl)cc2)n1 [Roche-Dataset for PDE10A, Compound 970] ?
B

Using the reported IC50, which band applies to CN(C)c1nc(CCc2nc(-c3ccccc3)cn2C)nc2ccc(Cl)cc12 [Roche-Dataset for PDE10A, Compound 55] ?
A

Using the reported IC50, which band applies to "Cn1ncc(NC(=O)c2nc(C3CC3)cnc2Nc2cncnc2)c1C(=O)N1CCCO1" ?
A

Using the reported IC50, which band applies to Cc1ncc(C)n2nc(CCc3nc(Br)nn3C)nc12 [Roche-Dataset for PDE10A, Compound 1131] ?
C

Using the reported IC50, which band applies to O=C(Nc1ccc2cc(-c3ccccc3)nn2c1)c1ccno1 [Roche-Dataset for PDE10A, Compound 679] ?
C

Using the reported IC50, which band applies to Cc1ncc(Br)c2nc(CCc3nc(N4CCCC4)nn3C)nn12 [Roche-Dataset for PDE10A, Compound 658] ?
B

Using the reported IC50, which band applies to Cc1cc(C)n2nc(/C=C/c3nc(N(C)C)nn3C)nc2n1 [Roche-Dataset for PDE10A, Compound 1144] ?
B

----------
# experimental.system: cAMP and cAMP-inhibited cGMP 3',5'-cyclic phosphodiesterase 10A (Homo sapiens, UniProt Q9Y233)
Labelling: IC50 reported below 6 nM becomes rule met; at or above becomes rule not met.

compound="COCc1ccc(Nc2cncnc2)c(C(=O)Nc2cc(-c3ccccn3)nn2C)n1 [US8470820, 59]" category="rule not met"

Please let me know if Cn1cc(-c2ccccc2)nc1/C=C/c1ncc(Cl)nc1Cl [Roche-Dataset for PDE10A, Compound 465] shows IC50 below 6 nM.
rule not met

Please let me know if O=C(Nc1sccc1C(=O)N1CCOCC1)c1nc(C2CC2)ccc1Nc1cncnc1 [US8703768, 90] shows IC50 below 6 nM.
rule met

----------
The entries below are paired with their reported log10 of IC50.
# experimental.system: cAMP and cAMP-inhibited cGMP 3',5'-cyclic phosphodiesterase 10A (Homo sapiens)
A value of 2 here means IC50 of 100 in nM, since values are log10.

compound="O=C(c1nc(C2CC2)cnc1Nc1cncnc1)N1CCC(O)(Cc2ccccc2)CC1 [Roche-Dataset for PDE10A, Compound 1044]" experimental_system="cAMP and cAMP-inhibited cGMP 3',5'-cyclic phosphodiesterase 10A (Homo sapiens)" value_measured=4.00
compound="Cc1c(C#N)nc2ccc(C#Cc3nc(-c4ccccc4)cn3C)nn12 [Roche-Dataset for PDE10A, Compound 79]" experimental_system="cAMP and cAMP-inhibited cGMP 3',5'-cyclic phosphodiesterase 10A (Homo sapiens)" value_measured=0.10
compound="CN(C(=O)c1c(C(=O)N2CCC2)cnn1C)c1ccn2nc(-c3ccccc3)nc2c1 [Roche-Dataset for PDE10A, Compound 1062]" experimental_system="cAMP and cAMP-inhibited cGMP 3',5'-cyclic phosphodiesterase 10A (Homo sapiens)" value_measured=3.16
compound="Cc1cc(C)n2nc(/C=C/c3nc(Br)nn3C)nc2n1 [Roche-Dataset for PDE10A, Compound 1158]" experimental_system="cAMP and cAMP-inhibited cGMP 3',5'-cyclic phosphodiesterase 10A (Homo sapiens)" value_measured=4.00
compound="Cn1ncc(C(=O)N2CCC2)c1C(=O)Nc1cn(-c2cnccn2)cn1 [Roche-Dataset for PDE10A, Compound 906]" experimental_system="cAMP and cAMP-inhibited cGMP 3',5'-cyclic phosphodiesterase 10A (Homo sapiens)" value_measured=3.39
compound=Cc1cc(C#Cc2nc(N3CCCC3)nn2C)nn2c(C)c(C(F)(F)F)nc12 experimental_system="cAMP and cAMP-inhibited cGMP 3',5'-cyclic phosphodiesterase 10A (Homo sapiens)" value_measured=-0.19
compound="CC(=O)c1cccc(NC(=O)c2nc(C3CC3)cnc2Nc2cncnc2)c1 [Roche-Dataset for PDE10A, Compound 957]" experimental_system="cAMP and cAMP-inhibited cGMP 3',5'-cyclic phosphodiesterase 10A (Homo sapiens)" value_measured=1.28
compound="CN(C)C(=O)c1cc(NC(=O)c2nc(C3CC3)ccc2Nc2cncnc2)[nH]n1 [Roche-Dataset for PDE10A, Compound 748]" experimental_system="cAMP and cAMP-inhibited cGMP 3',5'-cyclic phosphodiesterase 10A (Homo sapiens)" value_measured=3.06
compound="Cn1ncc(C(=O)N2CCOCC2)c1C(=O)N[C@@H]1CCn2cc(-c3ccccc3Cl)nc2C1 [Roche-Dataset for PDE10A, Compound 457]" experimental_system="cAMP and cAMP-inhibited cGMP 3',5'-cyclic phosphodiesterase 10A (Homo sapiens)" value_measured=3.38
compound="Cn1nc(C2CCCC2)cc1NC(=O)c1nc(C2CC2)ccc1Nc1cncnc1 [Roche-Dataset for PDE10A, Compound 677]" experimental_system="cAMP and cAMP-inhibited cGMP 3',5'-cyclic phosphodiesterase 10A (Homo sapiens)" value_measured=2.64

API: value(readout=log10 of IC50, system=cAMP and cAMP-inhibited cGMP 3',5'-cyclic phosphodiesterase 10A (Homo sapiens)) for record Cc1cc(NC(=O)c2ccc3cc(-c4ccccc4)nn3c2)ccn1 [Roche-Dataset for PDE10A, Compound 384]
1.54

API: value(readout=log10 of IC50, system=cAMP and cAMP-inhibited cGMP 3',5'-cyclic phosphodiesterase 10A (Homo sapiens)) for record COC[C@H]1CCCN1c1n[nH]c(CCc2nc3c(C)ncc(C)n3n2)n1 [Roche-Dataset for PDE10A, Compound 376]
0.92

API: value(readout=log10 of IC50, system=cAMP and cAMP-inhibited cGMP 3',5'-cyclic phosphodiesterase 10A (Homo sapiens)) for record "Cc1nc2ccc(CCc3nc(-c4ccccc4)cn3C)nn2c1CO"
1.32

API: value(readout=log10 of IC50, system=cAMP and cAMP-inhibited cGMP 3',5'-cyclic phosphodiesterase 10A (Homo sapiens)) for record CN(c1cncnc1)c1ccc(C2CC2)nc1C(=O)N[C@@H]1CCN(c2ccc(Br)cn2)C1 [Roche-Dataset for PDE10A, Compound 95]
3.92

----------
Let's go through some log10 of IC50 measurements on cAMP and cAMP-inhibited cGMP 3',5'-cyclic phosphodiesterase 10A (Homo sapiens) together.
A value of 2 here means IC50 of 100 in nM, since values are log10.

Observe how each entry below is paired with its result.
compound="CNC(=O)c1nn(C)cc1NC(=O)c1ccc2cc(-c3ccccc3)nn2c1 [Roche-Dataset for PDE10A, Compound 532]" observation_type="log10 of IC50" value_measured=2.29
compound="Cc1cc(-c2nc3cc(NC(=O)c4c(C(=O)N5CCC5)cnn4C)ccn3n2)ccn1 [Roche-Dataset for PDE10A, Compound 234]" observation_type="log10 of IC50" value_measured=0.28
compound="Cc1c(Cl)ccc2nc(CCc3nc4ccc(Cl)c(C)n4n3)nn12 [Roche-Dataset for PDE10A, Compound 512]" observation_type="log10 of IC50" value_measured=2.67
compound="O=C(Nc1cc(Cl)ncn1)c1ccc2cc(-c3ccccc3)nn2c1 [Roche-Dataset for PDE10A, Compound 419]" observation_type="log10 of IC50" value_measured=2.40
compound=CC(C)(O)CNC(=O)c1cc(OCCO)ccc1NC(=O)c1nc(C2CC2)cnc1Nc1cncnc1 observation_type="log10 of IC50" value_measured=-0.31

Please look up its log10 of IC50: "CCN(C)C(=O)c1c(NC(=O)c2nc(C3CC3)cnc2Nc2cncnc2)cnn1C"
1.40

----------
# experimental.system: cAMP and cAMP-inhibited cGMP 3',5'-cyclic phosphodiesterase 10A (Homo sapiens, UniProt Q9Y233)
observation.type: pIC50
The read-out pIC50 is expressed as -log10 of concentration in moles per litre.

molecule="CCCn1ccc(NC(=O)c2c(C(=O)N3CCC3)cnn2C)n1 [Roche-Dataset for PDE10A, Compound 1116]" value_measured=6.39

Please look up its pIC50: O=C(Nc1ccncc1F)c1ccc2cc(-c3ccccc3)nn2c1 [Roche-Dataset for PDE10A, Compound 471]
6.03

Please look up its pIC50: Cn1ncc(C(=O)N2CCC2)c1C(=O)Nc1ccn(CCC#N)n1 [Roche-Dataset for PDE10A, Compound 1114]
5.50

Please look up its pIC50: Cc1ccc2nc(OCc3nc(-c4ccccc4)cn3C)c(Cl)nc2c1 [Roche-Dataset for PDE10A, Compound 463]
8.37

Please look up its pIC50: CN(C)c1nc2cc(NC(=O)c3c(C(=O)N4CCOCC4)cnn3C)ccn2n1 [Roche-Dataset for PDE10A, Compound 568]
7.41

Please look up its pIC50: Cc1c(Cl)cc(C(F)(F)F)c2nc(CCc3nc(N4CCCC4)nn3C)nn12 [Roche-Dataset for PDE10A, Compound 157]
8.96

Please look up its pIC50: COCC1(CNC(=O)c2nc(C3CC3)cnc2Nc2cncnc2)CC1 [Roche-Dataset for PDE10A, Compound 1010]
5.75

Recorded values, source BindingDB's records for doi:10.1007/s10822-022-00478-x.
